Where do these numbers come from? They come from PubChem BioAssay (NCI).

tested on: SF-268 CNS; assay: NCI-60 one-dose screen, 48 h (100 = growth as untreated, 0 = no growth, -100 = all killed); conditions: 10 µM unless noted
The panel holds about 83,000 compounds, 20% with a hit somewhere; the sample as a whole holds those more often.
quantity_kind: growth (%)
Report the value in % with no unit label.

Past entries and their recorded results:
**Q:** Sample `Clc1ccc(CNc2c3ccccc3nc3ccccc23)cc1` — what was its growth?
**A:** 67.9

**Q:** Then COC(C(=O)[C@@H](O)[C@@H](C)O)[C@@H]1Cc2cc3cc(O[C@H]4C[C@@H](O[C@H]5C[C@@H](O)[C@H](O)C(C)O5)[C@H](O)C(C)O4)c(C)c(O)c3c(O)c2C(=O)[C@H]1O[C@H]1C[C@@H](O[C@H]2C[C@@H](O[C@H]3C[C@@H](O)[C@H](OC)C(C)O3)[C@@H](O)C(C)O2)[C@H](O)C(C)O1 (stereo partly drawn) ?
**A:** 14.2

**Q:** Then `O=C(/C=C/c1ccccc1)c1cccc(OCCCOc2cccc(C(=O)/C=C/c3ccccc3)c2)c1` ?
**A:** 104

**Q:** Then `Brc1c2c(c(Br)c3ccccc13)CCCC2` ?
**A:** 104

**Q:** Then `CCOC(=O)c1[nH]c(=O)c2c(C)nc(-c3ccccc3)cc2c1O` ?
**A:** 106

Others:
**Q:** Sample `N#C/C(=C/c1ccc([N+](=O)[O-])cc1)n1nnc2cc(F)c(F)cc21` — what was its growth?
**A:** 90.5

**Q:** Then `COc1ccc(C2=Nc3c/c(=C\c4c(O)[nH]c5ccc(Cl)cc45)ccc3=N2)cc1` ?
**A:** 53.4

**Q:** Then `Cc1c(-c2nc3ccc(F)cc3c(=O)[nH]2)c2ccccc2n1C` ?
**A:** 54.1
